# Tested on: ACHN renal
# Protocol text: NCI tumour cell line growth inhibition, 48 h
Outcome measure: TGI

N#Cc1c(-c2ccc([N+](=O)[O-])cc2)c(C#N)c(=O)n(NS(=O)(=O)c2ccccc2)c1S
> 100 µM
O=C1c2cc3c(cc2-c2c1c1cc(F)c(F)cc1c(=O)n2CCCn1ccnc1)OCO3
0.134 µM
N/N=C(/Cc1ccccc1)NNO
> 100 µM
COc1cc(CCNC2=CC(=O)c3nc[nH]c3C2=O)ccc1O
> 100 µM
COC1=CC(c2ccc[nH]2)=N/C1=C\c1[nH]c(C)c(C(=O)CCCCCCCCC(=O)O[C@H]2CC[C@H]3C4CCc5cc(O)ccc5C4CC[C@]23C)c1C (some centres not stated)
> 50 µM

Lookup: Quick check: TGI of C1=CC(=P(c2ccccc2)(c2ccccc2)c2ccccc2)C=C1 ?
Found: 28.2 µM

Lookup: Quick check: TGI of O=CCCCCCOCc1ccccc1 ?
Found: > 100 µM

Lookup: Quick check: TGI of C[n+]1cccc2ccc3cccnc3c21 ?
Found: > 100 µM

Lookup: Quick check: TGI of CC(=O)Nc1ccc(C2CC(c3ccc([N+](=O)[O-])cc3)=Nc3ccccc3S2)cc1 (configuration not stated) ?
Found: 32.1 µM

Lookup: Quick check: TGI of CN1CCN(C(=O)c2cn(Cc3cncn3Cc3ccc4c(c3)OCO4)cc2-c2cccc3ccccc23)CC1 ?
Found: > 100 µM

Lookup: Quick check: TGI of C=C1C(=O)O[C@@H]2/C=C(/C)[C@@H](OC(C)=O)C/C=C(\C)C(O)[C@@H](OC(=O)/C(C)=C\C)C12 (some centres not stated) ?
Found: 40.8 µM

Lookup: Quick check: TGI of COC(=O)[C@]1(c2cc3ccccc3n2S(=O)(=O)c2ccccc2)CC2CN(C(=O)OCc3ccccc3)C1C1OC(C)(C)OC21 (some centres not stated) ?
Found: > 100 µM

Lookup: Quick check: TGI of O=C(c1ccccc1)C1N=NN(Cc2ccccc2[N+](=O)[O-])C1C(=O)c1ccccc1 (configuration not stated) ?
Found: > 100 µM
